Recorded IC50 values for a group of compounds are listed next.
- Test system: Chang liver cell line
- assay.summary: Cytotoxicity assay (Cytell Cell Imaging), normal cell line
- Assay type: cell-based
- experimental.parameters: Homo sapiens, tested at 1–100 µM, three independent experiments, read-out: IC50 Normal Cell Line Chang Liver
readout.label: IC50 (µM)

INSERT INTO results (compound, study_target, relation_sign, value_observed) VALUES
  ('O=C(Nc1ccc(F)cc1)N1CCCC1c1ccc(Nc2c([N+](=O)[O-])c(Cl)cc3c2no[n+]3[O-])cc1O (stereo not shown) [6e]', 'Chang liver cell line', '=', 48),
  ('COc1ccc(NC(=O)N2CCCC2c2ccc(Nc3c([N+](=O)[O-])c(Cl)cc4c3no[n+]4[O-])cc2O)cc1 (stereo not shown) [6c]', 'Chang liver cell line', '=', 62),
  ('O=C(Nc1ccc(Br)cc1)N1CCCC1c1ccc(Nc2c([N+](=O)[O-])c(Cl)cc3c2no[n+]3[O-])cc1O (stereo not shown) [6d]', 'Chang liver cell line', '=', 53),
  ('O=C(Nc1ccccc1)N1CCCC1c1ccc(Nc2c([N+](=O)[O-])c(Cl)cc3c2no[n+]3[O-])cc1O (stereo not shown) [6b]', 'Chang liver cell line', '>', 100);

All figures here come from paper PMC6749236.
